# Target entity: Aryl hydrocarbon receptor nuclear translocator/Endothelial PAS domain-containing protein 1 (Homo sapiens) (UniProt P27540+Q99814)
# Sequence (P27540 2-789 limits assumed): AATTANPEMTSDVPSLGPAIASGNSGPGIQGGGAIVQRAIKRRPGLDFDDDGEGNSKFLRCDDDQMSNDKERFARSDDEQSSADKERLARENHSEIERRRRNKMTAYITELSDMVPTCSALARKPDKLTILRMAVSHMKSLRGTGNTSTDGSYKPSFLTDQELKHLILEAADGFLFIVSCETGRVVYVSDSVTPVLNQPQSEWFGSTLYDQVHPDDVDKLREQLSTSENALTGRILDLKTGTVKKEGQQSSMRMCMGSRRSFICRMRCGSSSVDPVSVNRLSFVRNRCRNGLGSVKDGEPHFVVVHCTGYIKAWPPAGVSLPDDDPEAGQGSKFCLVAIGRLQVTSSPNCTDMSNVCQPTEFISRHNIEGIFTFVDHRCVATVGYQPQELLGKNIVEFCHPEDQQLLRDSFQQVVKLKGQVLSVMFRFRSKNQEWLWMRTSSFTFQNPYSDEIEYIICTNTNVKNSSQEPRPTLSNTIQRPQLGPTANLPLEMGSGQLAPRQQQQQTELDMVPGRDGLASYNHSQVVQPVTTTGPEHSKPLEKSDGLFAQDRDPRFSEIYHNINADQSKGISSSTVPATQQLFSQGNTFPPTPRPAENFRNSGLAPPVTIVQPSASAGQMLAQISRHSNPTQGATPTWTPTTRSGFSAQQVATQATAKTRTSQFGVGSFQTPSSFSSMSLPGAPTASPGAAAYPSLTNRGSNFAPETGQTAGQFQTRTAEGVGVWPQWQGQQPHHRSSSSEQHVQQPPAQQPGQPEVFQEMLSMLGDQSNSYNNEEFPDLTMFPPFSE
# Sequence (Q99814 whole entry partner, the tested form may be a part): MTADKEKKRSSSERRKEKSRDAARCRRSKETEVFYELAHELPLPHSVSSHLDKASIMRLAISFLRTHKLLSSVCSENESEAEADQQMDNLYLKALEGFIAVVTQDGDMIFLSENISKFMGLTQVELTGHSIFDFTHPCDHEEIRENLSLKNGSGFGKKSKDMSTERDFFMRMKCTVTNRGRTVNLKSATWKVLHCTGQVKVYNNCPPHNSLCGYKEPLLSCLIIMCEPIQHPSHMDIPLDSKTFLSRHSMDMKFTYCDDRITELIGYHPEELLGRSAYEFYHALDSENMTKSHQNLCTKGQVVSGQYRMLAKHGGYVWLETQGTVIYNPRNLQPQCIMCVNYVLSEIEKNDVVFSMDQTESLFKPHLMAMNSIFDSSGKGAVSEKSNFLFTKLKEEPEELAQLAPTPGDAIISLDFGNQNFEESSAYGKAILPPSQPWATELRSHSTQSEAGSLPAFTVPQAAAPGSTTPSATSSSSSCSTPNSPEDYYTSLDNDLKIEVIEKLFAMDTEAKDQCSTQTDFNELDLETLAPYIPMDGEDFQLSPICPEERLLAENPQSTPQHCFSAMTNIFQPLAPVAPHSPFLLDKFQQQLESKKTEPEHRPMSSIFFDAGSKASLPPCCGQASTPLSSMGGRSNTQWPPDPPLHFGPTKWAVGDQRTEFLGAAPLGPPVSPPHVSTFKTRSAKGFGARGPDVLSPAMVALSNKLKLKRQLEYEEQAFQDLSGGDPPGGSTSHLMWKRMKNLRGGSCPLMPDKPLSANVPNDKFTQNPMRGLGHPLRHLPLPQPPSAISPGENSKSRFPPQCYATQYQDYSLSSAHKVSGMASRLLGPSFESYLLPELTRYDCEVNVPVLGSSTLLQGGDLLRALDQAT
# Recorded conditions: filed as agonist, dose 10.0 µM
Value type: ΔTm (°C)

>>> df
                            compound_string  value_type   u  measured
0  CS(=O)(=O)c1cc(NC2=NS(=O)(=O)c3ccccc32)cc(S(C)(=O)=O)c1         ΔTm  °C         0

[I] N#Cc1cccc(NC2=NS(=O)(=O)c3ccccc32)c1
[II] COc1cc(NC2=NS(=O)(=O)c3ccccc32)cc(OC)c1
[III] O=S1(=O)N=C(Nc2cc(C(F)(F)F)cc(C(F)(F)F)c2)c2cc(Br)ccc21
[IV] O=S1(=O)N=C(Nc2ccc(F)cc2F)c2ccccc21
[V] O=S1(=O)N=C(Nc2ccc(F)cc2)c2ccccc21
# sort list by recorded ΔTm, greatest to least Sort and list the labels as requested.
III, V, IV, I, II
(III: 0.87 °C, V: 0.3 °C, IV: 0.14 °C, I: 0.07 °C, II: 0 °C)

---

# Target entity: Aryl hydrocarbon receptor nuclear translocator/Endothelial PAS domain-containing protein 1 (Homo sapiens) (UniProt P27540+Q99814)
# Recorded conditions: filed as agonist, dose 10.0 µM
Value type: ΔTm (°C)

>>> print(df.to_string())
                                   compound   u  measured
0  O=S1(=O)N=C(Nc2cc(C(F)(F)F)cc(C(F)(F)F)c2)c2cc(F)ccc21  °C     -0.14
1  COC(=O)c1cc(NC2=NS(=O)(=O)c3ccccc32)cc(C(=O)OC)c1  °C      0.02
2   CC(=O)c1cccc(NC2=NS(=O)(=O)c3ccccc32)c1  °C     -0.13
3  O=S1(=O)N=C(Nc2cc(C(F)(F)F)cc(C(F)(F)F)c2)c2cc(Cl)ccc21  °C      -0.1
4  CN(C1=NS(=O)(=O)c2ccccc21)c1cc(C(F)(F)F)cc(C(F)(F)F)c1  °C      0.44
5          O=S1(=O)N=C(Nc2ccccc2F)c2ccccc21  °C      0.22

[I] O=C(O)c1cc(NC2=NS(=O)(=O)c3ccccc32)cc(C(=O)O)c1
[II] COc1ccc2c(c1)C(Nc1cc(C(F)(F)F)cc(C(F)(F)F)c1)=NS2(=O)=O
[III] [O-][s+]1cc(Nc2cc(C(F)(F)F)cc(C(F)(F)F)c2)c2ccccc21 (stereo not given)
[IV] FC(F)(F)c1cc(Nc2csc3ccccc23)cc(C(F)(F)F)c1
Would you mind ranking these compounds by ascending ΔTm? As an answer, provide the labels arranged in the order called for.
II, IV, III, I
(II: -0.29 °C, IV: 0.1 °C, III: 0.17 °C, I: 0.74 °C)

---

# Target entity: Aryl hydrocarbon receptor nuclear translocator/Endothelial PAS domain-containing protein 1 (Homo sapiens) (UniProt P27540+Q99814)
# Recorded conditions: filed as agonist, dose 10.0 µM
Value type: ΔTm (°C)

>>> df
                            compound_string  value_type  measured
0       O=S1(=O)N=C(Nc2cc(F)ccc2F)c2ccccc21         ΔTm      0.07
1  O=S1(=O)N=C(Nc2cc(C(F)(F)F)cc(C(F)(F)F)c2)c2ccc(Br)cc21         ΔTm      0.07
2  N#Cc1ccc2c(c1)C(Nc1cc(C(F)(F)F)cc(C(F)(F)F)c1)=NS2(=O)=O         ΔTm      0.83
3     O=S1(=O)N=C(Nc2cc(F)cc(F)c2)c2ccccc21         ΔTm      0.55
4        O=S1(=O)N=C(Nc2cccc(F)c2)c2ccccc21         ΔTm      0.17

[P] O=S1(=O)N=C(Nc2cccc(C(F)(F)F)c2)c2ccccc21
[Q] O=S1(=O)N=C(Nc2ccc(C(F)(F)F)cc2)c2ccccc21
Between the two listed entries P and Q , which has its ΔTm at the higher number? Give the label under which the chosen entry appears.
P
